- Tested on: green peach aphid (Myzus persicae)
- Procedure Details: Myzus persicae spray test (Chinese cabbage leaf discs)
- Format: in vivo
- Applied Conditions: foliar, 144 h, read-out: efficacy in %
Observation Type: pest or weed control at 500 g/ha (%)
Response body: numeric value in %, unit text excluded.

Some entries whose results are on file:
Cc1cc(F)c(C(=O)N(C)c2ccc3nn(-c4cncc(F)c4)cc3c2)cc1[S+]([O-])CC(F)(F)F (stereo not shown) [Example 118] : 90
FC(F)(F)Cn1cc(-c2ccc3nn(-c4cccnc4)cc3c2)cn1 [Example 99] : 90
C[S+]([O-])Cn1cc(-c2ccc3nn(-c4cccnc4)cc3c2)cn1 (stereo not shown) [Example 74] : 100
Cc1cc(C)c([S+]([O-])CC(F)(F)F)cc1-c1ccc2nn(-c3cccnc3)cc2c1 (stereo not shown) [Example 54] : 90
CCSc1ccnc(-c2ccc3nn(-c4cccnc4)cc3c2)c1 [Example 76] : 90
Cc1ccc(-c2ccc3nn(-c4cccnc4)cc3c2)cc1SCC(F)(F)F [Example 50] : 100

q: Query pest or weed control at 500 g/ha for Cc1ccc(NC(=O)c2ccc3nn(-c4cccnc4)cc3c2)cc1[S+]([O-])CC(F)(F)F (stereo not shown) [Example 94]
a: 90

q: Output measured pest or weed control at 500 g/ha for this item: CN(C(=O)CCS(C)(=O)=O)c1ccc2nn(-c3cncc(F)c3)cc2c1 [Example 128]
a: 100

q: Assign pest or weed control at 500 g/ha to the following record: CCSc1cccc(-c2ccc3nn(-c4cccnc4)cc3c2)n1 [Example 79]
a: 100

q: For the molecule O=C(c1ccc2nn(-c3cccnc3)cc2c1)N1CCOCC1 [Example 87] , give its measured pest or weed control at 500 g/ha value.
a: 100

q: Fill in reported pest or weed control at 500 g/ha for this entry: CCSc1cccnc1-c1ccc2nn(-c3cccnc3)cc2c1 [Example 77]
a: 90

q: Output pest or weed control at 500 g/ha of CNC(=O)c1ccc2nn(-c3cncnc3)cc2c1 [Example 31]
a: 90

q: State its pest or weed control at 500 g/ha: CSCC(C)C(=O)N(C)c1ccc2nn(-c3cccnc3)cc2c1 (stereo not shown) [Example 110]
a: 90

q: # return recorded pest or weed control at 500 g/ha for input FC(F)(F)c1cnn(-c2ccc3nn(-c4cccnc4)cc3c2)c1 [Example 55]
a: 90

q: Identify pest or weed control at 500 g/ha associated with the molecule CSCCNC(=O)c1ccc2nn(-c3cccnc3)cc2c1 [Example 85]
a: 90

* * *

Recorded pest or weed control at 500 g/ha values for a group of compounds are listed next.
- Tested on: green peach aphid (Myzus persicae)
- Procedure Details: Myzus persicae spray test (Chinese cabbage leaf discs)
- Format: in vivo
- Applied Conditions: foliar, 144 h, read-out: efficacy in %
Quick reminder: number only, in %, skip the unit.

q: Give the reported pest or weed control at 500 g/ha for this compound. CN(C)C(=O)c1ccc2nn(-c3cncnc3)cc2c1 [Example 27]
a: 90

* * *

- Procedure Details: log P by HPLC on reversed-phase columns (OECD Guideline 117), [a] acidic pH 2.7, [b] neutral pH 7.8
- Assay type: physicochemical
- Applied Conditions: reversed-phase (C18) HPLC column, acidic pH 2.7, read-out: logP[a]
Observation Type: chromatographic logP
Simply state the number, no unit and no words.

Clc1ccc(-c2ccc3nn(-c4cccnc4)cc3c2)nc1 : 2.8
CS(=O)(=O)CCNC(=O)c1ccc2nn(-c3cccnc3)cc2c1 : 0.9
O=C(c1ccc2nn(-c3cccnc3)cc2c1)N1CCS(=O)(=O)CC1 : 0.87
Cc1ccc(NC(=O)c2ccc3nn(-c4cccnc4)cc3c2)cc1[S+]([O-])CC(F)(F)F (stereo not drawn) : 2.23
CCSc1ccc(-c2ccc3nn(-c4cccnc4)cc3c2)nc1 : 2.87
CN(CC(F)(F)F)C(=O)c1ccc2nn(-c3cccnc3)cc2c1 : 1.84
Cc1cc(C)c(-c2ccc3nn(-c4cccnc4)cc3c2)cc1SCC(F)(F)F : 4.42
CCSc1cccnc1-c1ccc2nn(-c3cccnc3)cc2c1 : 2.53

q: In one line, give reported chromatographic logP of the entry Fc1cccc(-c2ccc3nn(-c4cccnc4)cc3c2)n1 .
a: 2.4

q: Look up and state reported chromatographic logP for Cc1ccc(NC(=O)c2ccc3nn(-c4cccnc4)cc3c2)cc1SCC(F)(F)F
a: 3.22

q: Provide measured chromatographic logP value, entry: CSCn1cc(-c2ccc3nn(-c4cccnc4)cc3c2)cn1
a: 2.02

q: Consider the compound Fc1ccnc(-c2ccc3nn(-c4cccnc4)cc3c2)c1 and give its recorded chromatographic logP.
a: 2.04
